Quick reference for IC50 among some molecules
System: HSB-2 cells
Experiment: Inhibition of HSB-2 leukemic cell line proliferation (WST-1)
Format: cell-based, human
Settings: Homo sapiens, HSB2, 48 h, cytotoxicity on HSB-2 cells, two days incubation, WST-1 read-out

structure_as_smiles: Nc1nc(N2CCN(C(=O)Nc3ccc(Cl)cc3)CC2)c2nc(-c3cccnc3)sc2n1
value_unit: µM
measurement_qualifier: =
IC50: 0.74
//
structure_as_smiles: Nc1nc(N2CCN(C(=O)COc3ccc(Cl)cc3)CC2)c2nc(CCc3ccccc3)sc2n1
value_unit: µM
measurement_qualifier: =
IC50: 4.53
//
structure_as_smiles: Cc1cccc(NC(=O)N2CCN(c3nc(N)nc4oc(CCc5ccc(F)cc5)nc34)CC2)c1
value_unit: µM
measurement_qualifier: >
IC50: 10
//
structure_as_smiles: Nc1nc(N2CCN(C(=O)COc3ccc(F)cc3)CC2)c2nc(-c3ccco3)sc2n1
value_unit: µM
measurement_qualifier: =
IC50: 0.51
//
structure_as_smiles: N#Cc1ccc(NC(=O)N2CCN(c3nc(N)nc4sc(Cc5ccc(F)cc5)nc34)CC2)cc1
value_unit: µM
measurement_qualifier: =
IC50: 6.89
//
structure_as_smiles: Nc1nc(N2CCN(C(=O)COc3ccc(Cl)cc3)CC2)c2nc(C3(c4ccc(Cl)cc4)CC3)sc2n1
value_unit: µM
measurement_qualifier: =
IC50: 6.28
//
structure_as_smiles: Nc1nc(N2CCN(C(=O)COc3ccc(Cl)cc3)CC2)c2nc(-c3ccc(Cl)c(Cl)c3)sc2n1
value_unit: µM
measurement_qualifier: =
IC50: 6.01
//
structure_as_smiles: COc1ccc(OCC(=O)N2CCN(c3nc(N)nc4sc(CCc5ccc(Br)cc5)nc34)CC2)cc1
value_unit: µM
measurement_qualifier: >
IC50: 10
//
structure_as_smiles: Nc1nc(N2CCN(C(=O)COc3ccc(OC(F)(F)F)cc3)CC2)c2nc(CCc3ccc(F)cc3)sc2n1
value_unit: µM
measurement_qualifier: >
IC50: 10
//
structure_as_smiles: Cc1ccc(CCc2nc3c(N4CCN(C(=O)COc5ccc(Cl)cc5)CC4)nc(N)nc3s2)cc1
value_unit: µM
measurement_qualifier: =
IC50: 4.49
//
structure_as_smiles: Nc1nc(N2CCN(C(=O)COc3cccc([N+](=O)[O-])c3)CC2)c2nc(-c3ccc(F)cc3)sc2n1
value_unit: µM
measurement_qualifier: =
IC50: 4.76
//
structure_as_smiles: Nc1nc(N2CCN(C(=O)CCc3ccc(F)cc3)CC2)c2nc(-c3ccc(F)cc3)sc2n1
value_unit: µM
measurement_qualifier: =
IC50: 5.57
//
structure_as_smiles: Nc1nc(N2CCN(C(=O)COc3ccccc3)CC2)c2nc(-c3ccc(F)cc3)sc2n1
value_unit: µM
measurement_qualifier: =
IC50: 0.57
//
structure_as_smiles: Nc1nc(N2CCN(C(=O)COc3ccc(Cl)cc3)CC2)c2nc(-c3ccc(Br)cc3)[nH]c2n1
value_unit: µM
measurement_qualifier: =
IC50: 2.14
//
structure_as_smiles: COc1ccc(OCC(=O)N2CCN(c3nc(N)nc4sc(-c5cccnc5)nc34)CC2)cc1
value_unit: µM
measurement_qualifier: =
IC50: 0.06
//
structure_as_smiles: CN(C(=O)CN1CCN(c2nc(N)nc3oc(CCc4ccc(F)cc4)nc23)CC1)c1ccccc1
value_unit: µM
measurement_qualifier: >
IC50: 10
//
structure_as_smiles: CCCc1nc2c(N3CCN(C(=O)COc4ccc(Cl)cc4)CC3)nc(N)nc2[nH]1
value_unit: µM
measurement_qualifier: =
IC50: 4.51
//
structure_as_smiles: Nc1nc(N2CCN(C(=O)COc3ccc(O)cc3)CC2)c2nc(CCc3ccc(F)cc3)sc2n1
value_unit: µM
measurement_qualifier: =
IC50: 3.94
//
structure_as_smiles: Cc1ccc(-c2nc3c(N4CCN(C(=O)COc5ccc(Cl)cc5)CC4)nc(N)nc3s2)cc1
value_unit: µM
measurement_qualifier: =
IC50: 0.23
